# Tested on: Bassia scoparia
# method: Phytotoxicity in Bassia scoparia assessed as inhibition of shoot differentiation at 250 ug/mL measured on day 14 relative to untreated control
# Assay type: functional, organism-based
Active and inactive are the calls of the source. The calls are words filed in the database; no cut-off is given here.
Your answer must be one of the following: active, inactive

Exercise: Hello, I am checking results. What call was entered for O=c1c(O)c(-c2ccc(O)c(O)c2)oc2cc(O)cc(O)c12 ?
Key: inactive

Exercise: Outcome logged for Oc1cc(O)c2c(c1)O[C@H](c1ccc(O)c(O)c1)[C@H](O)C2 [(-)-EPICATECHIN] in this assay:
Key: inactive

Exercise: Status in this test for Oc1cc(O)c2c(c1)O[C@@H](c1ccc(O)c(O)c1)[C@@H](O)C2 [(+)-EPICATECHIN] ?
Key: active

Exercise: Check the results log: what was the call for O=C1C[C@@H](c2ccc(O)cc2)Oc2cc(O)cc(O)c21 ?
Key: inactive

Origin of the recorded values: ChEMBL document CHEMBL3046015
